Tested on: human pancreatic ductal epithelial cells (HPNE)
Ends that are not written are not given here.
Items are presented alongside their recorded Average cell viability, HPNE.
PARAMETER_MEASURED: Average cell viability, HPNE

> print(dat)
            substance  numeric.result
 1  TIDDELR [TaPep26]           94.58
 2  PTELESD [TaPep41]           95.94
 3   DQEPVE [TaPep44]          105.06
 4  FEGDQDA [TaPep18]          102.53
 5   AKDEKEL [TaPep1]           94.74
 6   FTEELE [TaPep32]          103.23
 7    VAEDLL [TaPep8]          106.12
 8   TDPELV [TaPep60]          111.81
 9  KNDESVD [TaPep48]          102.66
10    VARLEA [TaPep9]          104.39
11   YAGNAP [TaPep10]           95.54
12  LGDDLVK [TaPep19]          100.07
13   NGDDEEG [TaPep7]           99.30
14  IAVPHEP [TaPep47]           99.80
15  HGGDDLG [TaPep28]          100.10
16   SNDPVA [TaPep71]           94.64
17   EVGMQE [TaPep56]          104.53
18   DAELDK [TaPep34]          103.89
19  SLEYEFK [TaPep38]           96.57
20   LWGPVT [TaPep72]          101.26
21   STGTIR [TaPep51]          102.86
22   EQPLQA [TaPep21]           98.70
23  YDGTPLN [TaPep11]          100.63
24  HIDELDE [TaPep22]           95.67
25    KGYEAV [TaPep5]          113.38
26   LQDVVE [TaPep24]           93.71
27   EFPEQN [TaPep17]           92.31
28   TAEQVA [TaPep33]          106.02
29   AEDNSL [TaPep43]          110.25
30   VPDELN [TaPep23]           99.63
31   SVLEFS [TaPep52]          109.12
32   EPKVLV [TaPep54]          100.23
33  EDGPHGD [TaPep45]          101.66
34    DQKVLA [TaPep3]           93.24
35  NNDDEES [TaPep50]           98.30
36  LQPSLEH [TaPep59]           92.71
37   TQEVVN [TaPep25]           92.98

###

Assay: Electronic tongue analysis (Taste-Sensing System SA 402B)
Parameters: unit not given here
Conditions: sensor C00, peptide 1 mg/mL, reference solution 30 mM KCl + 0.3 mM tartaric acid as baseline, detection threshold 0, room temperature, four replicates, first measurement excluded
Ends that are not written are not given here.
PARAMETER_MEASURED: Bitter

> print(dat)
            substance  numeric.result
 1  HGGDDLG [TaPep28]            4.00
 2   AKDEKEL [TaPep1]            3.53
 3   DAELDK [TaPep34]            3.25
 4  YQAENKH [TaPep14]            0.38
 5   LQPDAGK [TaPep6]            2.72
 6   PPLENT [TaPep39]            2.99
 7    VAEDLL [TaPep8]            1.63
 8  LGDDLVK [TaPep19]            3.19
 9   DQEPVE [TaPep44]            3.13
10   SVLEFS [TaPep52]            4.10
11  SLEYEFK [TaPep38]            3.12
